assay.system: HLA-A11 (Homo sapiens, UniProt P04439, A114D/F33Y/S129P)
protocol.notes: REVEAL binding assay
condition.summary: score as percentage of the signal generated by the positive control peptide
# REVEAL binding score, HLA-type A11 listing for each entry below
endpoint: REVEAL binding score, HLA-type A11 (%)

{"sequence.text": "GYLPAVGAP", "experimental.value": 4.25}
{"sequence.text": "YVTGNIPGS", "experimental.value": 5.18}
{"sequence.text": "RNLGKVIDT", "experimental.value": 6.22}
{"sequence.text": "ARALAHGVR", "experimental.value": 3.83}

---

System: HLA-B40
protocol.notes: REVEAL binding assay
condition.summary: score as percentage of the signal generated by the positive control peptide
Where no end group is shown, it is not given here. [ ]: non-standard residue; d: D form. Nle = CCCC[C@H](N)C(=O)O
So basically: REVEAL binding score, HLA-type B40 at 50% or higher? That is TRUE. Lower than 50%? That is FALSE.

{"substance": "YVTGNIPGS", "assigned.label": "TRUE"}
{"substance": "TFSIYLIVS", "assigned.label": "FALSE"}
{"substance": "KVIDTLTCG", "assigned.label": "FALSE"}
{"substance": "DLMGYIPLV", "assigned.label": "FALSE"}
{"substance": "VIRVIAHGL", "assigned.label": "TRUE"}
{"substance": "RNLGKVIDT", "assigned.label": "FALSE"}
{"substance": "RVIETLTSG", "assigned.label": "FALSE"}
{"substance": "QIVGGVYLL", "assigned.label": "FALSE"}
{"substance": "IVGGVYLLP", "assigned.label": "FALSE"}
{"substance": "ITFSIYLIV", "assigned.label": "TRUE"}
{"substance": "GGQIIGGNY", "assigned.label": "FALSE"}
{"substance": "IPLVGAPLG", "assigned.label": "FALSE"}
{"substance": "LGRVIETLT", "assigned.label": "TRUE"}
{"substance": "YATGNLPGC", "assigned.label": "TRUE"}
{"substance": "GRVIETLTS", "assigned.label": "FALSE"}
{"substance": "IIGGNYLIP", "assigned.label": "TRUE"}
{"substance": "[Nle]GYIPLIGA", "assigned.label": "TRUE"}
{"substance": "SFSIELLAL", "assigned.label": "FALSE"}
{"substance": "IGGNYLIPR", "assigned.label": "FALSE"}
{"substance": "RLGVRATRK", "assigned.label": "FALSE"}
{"substance": "PRLGVRATR", "assigned.label": "FALSE"}
{"substance": "NLGRVIETL", "assigned.label": "FALSE"}
{"substance": "RVIAHGLRL", "assigned.label": "FALSE"}
{"substance": "VIDTLTCGF", "assigned.label": "FALSE"}
{"substance": "GQIVGGVYL", "assigned.label": "FALSE"}
{"substance": "L[Nle]GYIPLIG", "assigned.label": "TRUE"}
{"substance": "IRNLGRVIE", "assigned.label": "FALSE"}
{"substance": "EL[Nle]GYIPLI", "assigned.label": "FALSE"}
{"substance": "RNLGRVIET", "assigned.label": "FALSE"}
{"substance": "NLGKVIDTL", "assigned.label": "TRUE"}
{"substance": "NLPGCSFSI", "assigned.label": "TRUE"}

---

Below, each entry is listed alongside its reported REVEAL binding score, HLA-type A11.
assay.system: HLA-A11 (Homo sapiens, UniProt P04439, A114D/F33Y/S129P)
protocol.notes: REVEAL binding assay
condition.summary: score as percentage of the signal generated by the positive control peptide
Where no end group is shown, it is not given here. [ ]: non-standard residue; d: D form. Cit = NC(=O)NCCC[C@H](N)C(=O)O; Nle = CCCC[C@H](N)C(=O)O

{"substance": "NLGRVIETL", "measurement.units": "%", "REVEAL binding score, HLA-type A11": 4.53}
{"substance": "ADLMGYIPL", "measurement.units": "%", "REVEAL binding score, HLA-type A11": 3.35}
{"substance": "IRNLGRVIE", "measurement.units": "%", "REVEAL binding score, HLA-type A11": 5.31}
{"substance": "KVIDTLTCG", "measurement.units": "%", "REVEAL binding score, HLA-type A11": 8.91}
{"substance": "DLMGYIPLV", "measurement.units": "%", "REVEAL binding score, HLA-type A11": 5.01}
{"substance": "GNIPGSTYS", "measurement.units": "%", "REVEAL binding score, HLA-type A11": 1.54}
{"substance": "GQIIGGNYL", "measurement.units": "%", "REVEAL binding score, HLA-type A11": 2.77}
{"substance": "RNLGRVIET", "measurement.units": "%", "REVEAL binding score, HLA-type A11": 13.68}
{"substance": "GYIPLVGAP", "measurement.units": "%", "REVEAL binding score, HLA-type A11": 3.84}
{"substance": "SRNLGKVID", "measurement.units": "%", "REVEAL binding score, HLA-type A11": 4.45}
{"substance": "PRLGVRATR", "measurement.units": "%", "REVEAL binding score, HLA-type A11": 2.73}
{"substance": "VIDTLTCGF", "measurement.units": "%", "REVEAL binding score, HLA-type A11": 6.00}
{"substance": "[Nle]GYIPLIGA", "measurement.units": "%", "REVEAL binding score, HLA-type A11": 7.27}
{"substance": "GRVIETLTS", "measurement.units": "%", "REVEAL binding score, HLA-type A11": 27.62}
{"substance": "NYATGNLPG", "measurement.units": "%", "REVEAL binding score, HLA-type A11": 4.69}
{"substance": "LPAVGAPIG", "measurement.units": "%", "REVEAL binding score, HLA-type A11": 4.95}
{"substance": "EL[Nle]GYIPLI", "measurement.units": "%", "REVEAL binding score, HLA-type A11": 3.21}
{"substance": "TGNLPGCSF", "measurement.units": "%", "REVEAL binding score, HLA-type A11": 2.56}
{"substance": "RALAHGVRV", "measurement.units": "%", "REVEAL binding score, HLA-type A11": 4.45}
{"substance": "VIETLTSGF", "measurement.units": "%", "REVEAL binding score, HLA-type A11": 3.66}
{"substance": "GP[Cit]IGVRAT", "measurement.units": "%", "REVEAL binding score, HLA-type A11": 2.72}
{"substance": "GITFSIYLI", "measurement.units": "%", "REVEAL binding score, HLA-type A11": 4.88}
{"substance": "IRVIAHGLR", "measurement.units": "%", "REVEAL binding score, HLA-type A11": 2.50}

---

assay.system: HLA-A2 (Homo sapiens, UniProt P04439, D140Y/D185E/D98H/E176V/E277Q/G131W/G231S/I119V/I121R/I166T/I218V/N151K/N90K/P208A/P217A/Q86G/Q94H/R138H/R169H)
protocol.notes: REVEAL binding assay
condition.summary: score as percentage of the signal generated by the positive control peptide
Where no end group is shown, it is not given here. [ ]: non-standard residue; d: D form. Cit = NC(=O)NCCC[C@H](N)C(=O)O; Nle = CCCC[C@H](N)C(=O)O
# REVEAL binding score, HLA-type A2 annotations

{"substance": "IPLVGAPLG", "REVEAL binding score, HLA-type A2, %": 4.32}
{"substance": "VIDTLTCGF", "REVEAL binding score, HLA-type A2, %": 5.14}
{"substance": "ADLMGYIPL", "REVEAL binding score, HLA-type A2, %": 8.06}
{"substance": "TGNLPGCSF", "REVEAL binding score, HLA-type A2, %": 5.18}
{"substance": "RALAHGVRV", "REVEAL binding score, HLA-type A2, %": 8.69}
{"substance": "IRNLGRVIE", "REVEAL binding score, HLA-type A2, %": 8.77}
{"substance": "NLPGCSFSI", "REVEAL binding score, HLA-type A2, %": 47.28}
{"substance": "GKVIDTLTC", "REVEAL binding score, HLA-type A2, %": 4.89}
{"substance": "NLGKVIDTL", "REVEAL binding score, HLA-type A2, %": 7.70}
{"substance": "P[Cit]IGVRAT[Cit]", "REVEAL binding score, HLA-type A2, %": 7.36}
{"substance": "QIIGGNYLI", "REVEAL binding score, HLA-type A2, %": 73.54}
{"substance": "GQIVGGVYL", "REVEAL binding score, HLA-type A2, %": 55.85}
{"substance": "EL[Nle]GYIPLI", "REVEAL binding score, HLA-type A2, %": 97.87}
{"substance": "MGYIPLVGA", "REVEAL binding score, HLA-type A2, %": 10.71}
{"substance": "GGQIVGGVY", "REVEAL binding score, HLA-type A2, %": 6.88}
{"substance": "IGGNYLIPR", "REVEAL binding score, HLA-type A2, %": 7.04}
{"substance": "GQIIGGNYL", "REVEAL binding score, HLA-type A2, %": 12.96}
{"substance": "QIVGGVYLL", "REVEAL binding score, HLA-type A2, %": 57.04}
{"substance": "YVTGNIPGS", "REVEAL binding score, HLA-type A2, %": 6.88}
{"substance": "KVIDTLTCG", "REVEAL binding score, HLA-type A2, %": 19.13}
{"substance": "YATGNLPGC", "REVEAL binding score, HLA-type A2, %": 22.46}
{"substance": "GRVIETLTS", "REVEAL binding score, HLA-type A2, %": 5.26}
{"substance": "IIGGNYLIP", "REVEAL binding score, HLA-type A2, %": 8.27}
{"substance": "GYLPAVGAP", "REVEAL binding score, HLA-type A2, %": 5.87}
{"substance": "LGKVIDTLT", "REVEAL binding score, HLA-type A2, %": 4.05}
{"substance": "VIETLTSGF", "REVEAL binding score, HLA-type A2, %": 4.84}
{"substance": "RNLGRVIET", "REVEAL binding score, HLA-type A2, %": 5.96}
{"substance": "IRVIAHGLR", "REVEAL binding score, HLA-type A2, %": 4.83}
{"substance": "VARALAHGV", "REVEAL binding score, HLA-type A2, %": 5.85}
